Listed here are compounds together with their documented IC50.
target: AChE; acetylcholinesterase (E.C. 3.1.1.7) from Electrophorus electricus (Electrophorus electricus, UniProt O42275); construct: commercial enzyme from Sigma-Aldrich, EC 3.1.1.7, purified from electric eel; assay: Ellman assay, absorbance at […] nm; type: biochemical; conditions: read-out: AChE / IC50 (μM) ± SD *
Sequence (O42275 24-633): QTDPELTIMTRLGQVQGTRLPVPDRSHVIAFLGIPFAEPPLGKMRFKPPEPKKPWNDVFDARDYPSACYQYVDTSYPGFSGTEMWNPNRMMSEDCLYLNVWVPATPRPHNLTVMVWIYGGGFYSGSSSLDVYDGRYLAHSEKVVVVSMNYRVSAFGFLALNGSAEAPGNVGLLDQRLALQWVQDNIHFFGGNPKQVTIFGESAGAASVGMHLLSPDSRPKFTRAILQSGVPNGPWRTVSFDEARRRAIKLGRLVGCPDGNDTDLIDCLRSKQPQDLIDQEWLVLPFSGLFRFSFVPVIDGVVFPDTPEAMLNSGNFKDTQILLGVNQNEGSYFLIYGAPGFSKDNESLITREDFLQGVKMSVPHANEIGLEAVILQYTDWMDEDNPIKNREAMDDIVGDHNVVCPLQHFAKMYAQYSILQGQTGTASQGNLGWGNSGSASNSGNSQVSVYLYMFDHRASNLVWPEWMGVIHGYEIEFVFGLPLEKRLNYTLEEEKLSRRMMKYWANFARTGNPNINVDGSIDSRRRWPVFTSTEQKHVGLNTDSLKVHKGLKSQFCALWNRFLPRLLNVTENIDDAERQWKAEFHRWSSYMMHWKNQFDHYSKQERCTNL
Numbers only here, please. The scale is µM.

The following compounds have reported results that may help.
{"columns": ["chemicalSmiles", "unitsSymbol", "valueReported"],
 "data": [
  ["Nc1nnc(-c2cc3cccc(O)c3oc2=O)s1", "µM", 0.165],
  ["COc1cccc2cc(-c3nnc(N)s3)c(=O)oc12", "µM", 0.213],
  ["CCOc1cccc2cc(-c3nnc(N)s3)c(=O)oc12", "µM", 0.152],
  ["CCN(CC)c1ccc2cc(-c3nnc(N)s3)c(=O)oc2c1", "µM", 0.184],
  ["Nc1nnc(-c2cc3cc(O)ccc3oc2=O)s1", "µM", 0.196]
]}

q: Name the recorded IC50 for Nc1nnc(-c2cc3cc(Br)ccc3oc2=O)s1 .
a: 0.183

q: What would you report for COc1cc([N+](=O)[O-])cc2cc(-c3nnc(N)s3)c(=O)oc12 ?
a: 0.159

q: What do you have for Nc1nnc(-c2cc3cc(Cl)ccc3oc2=O)s1 ?
a: 0.211

q: What do we get for Nc1nnc(-c2cc3ccc(O)c(O)c3oc2=O)s1 ?
a: 0.187

q: Same lookup for Nc1nnc(-c2cc3ccccc3oc2=O)s1 , please.
a: 0.199

q: Follow-up entry: Nc1nnc(-c2cc3cc([N+](=O)[O-])ccc3oc2=O)s1
a: 0.198

q: Also check Nc1nnc(-c2cc3ccc(O)cc3oc2=O)s1
a: 0.2

----------
molecular target: BuChE; butyrylcholinesterase (EC 3.1.1.8) from equine serum (Equus caballus, UniProt P81908); construct: gene BCHE; commercial enzyme from equine serum, Sigma-Aldrich, EC 3.1.1.8; test: Ellman assay, absorbance at […] nm; type: biochemical; details: read-out: BuChE / IC50 (μM) ± SD *
Sequence (P81908 whole entry): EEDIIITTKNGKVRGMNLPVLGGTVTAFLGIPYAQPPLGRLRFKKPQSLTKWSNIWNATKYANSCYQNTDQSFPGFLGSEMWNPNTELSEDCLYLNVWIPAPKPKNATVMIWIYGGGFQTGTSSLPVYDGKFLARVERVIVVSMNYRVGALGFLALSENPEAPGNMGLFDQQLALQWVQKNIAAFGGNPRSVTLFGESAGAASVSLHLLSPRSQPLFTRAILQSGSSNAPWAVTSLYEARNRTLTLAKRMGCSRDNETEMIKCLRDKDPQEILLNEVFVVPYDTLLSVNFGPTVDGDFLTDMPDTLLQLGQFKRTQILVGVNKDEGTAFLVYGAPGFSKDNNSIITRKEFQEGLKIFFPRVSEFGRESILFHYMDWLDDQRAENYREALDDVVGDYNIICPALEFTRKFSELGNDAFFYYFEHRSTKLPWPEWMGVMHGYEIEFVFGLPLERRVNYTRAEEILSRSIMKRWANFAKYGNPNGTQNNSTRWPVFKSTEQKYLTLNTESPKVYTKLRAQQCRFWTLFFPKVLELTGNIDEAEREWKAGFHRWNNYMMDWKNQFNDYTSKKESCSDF
Readings of IC50 for the listed molecules
Numeric only. Scale: µM

{"columns": ["chemicalSmiles", "IC50, µM"],
 "data": [
  ["Nc1nnc(-c2cc3cccc(O)c3oc2=O)s1", 0.202]
]}

q: Request the reported IC50 associated with Nc1nnc(-c2cc3cc(Cl)ccc3oc2=O)s1
a: 0.205

q: Now give it for Nc1nnc(-c2cc3cc(O)ccc3oc2=O)s1 too.
a: 0.235

q: What do you get for COc1cc([N+](=O)[O-])cc2cc(-c3nnc(N)s3)c(=O)oc12 ?
a: 0.494

----------
target: BuChE; butyrylcholinesterase (EC 3.1.1.8) from equine serum (Equus caballus, UniProt P81908); construct: gene BCHE; commercial enzyme from equine serum, Sigma-Aldrich, EC 3.1.1.8; assay: Ellman assay, absorbance at […] nm; type: biochemical; conditions: read-out: BuChE / IC50 (μM) ± SD *
I'd appreciate it if you marked entries Y when IC50 is lower than 0.3 µM and N when it is not.

{"columns": ["chemicalSmiles", "labelClass"],
 "data": [
  ["Nc1nnc(-c2cc3cc(Br)ccc3oc2=O)s1", "Y"],
  ["Nc1nnc(-c2cc3ccccc3oc2=O)s1", "N"],
  ["Nc1nnc(-c2cc3cc([N+](=O)[O-])ccc3oc2=O)s1", "Y"]
]}

q: Quick check: IC50 of CCN(CC)c1ccc2cc(-c3nnc(N)s3)c(=O)oc2c1 under 0.3 µM?
a: Y

q: Consider next the molecule Nc1nnc(-c2cc3ccc(O)c(O)c3oc2=O)s1 in the same way.
a: Y
